# testTarget: T1, YEATS2 YEATS domain, His-SUMO-YEATS2 (201-332) (human, UniProt Q9ULM3 201-332)
# T1 construct: range 201-332; Expressed in E. coli; also called YEATS2 domain; not shown: His-SUMO tag
# T1 sequence (looked up): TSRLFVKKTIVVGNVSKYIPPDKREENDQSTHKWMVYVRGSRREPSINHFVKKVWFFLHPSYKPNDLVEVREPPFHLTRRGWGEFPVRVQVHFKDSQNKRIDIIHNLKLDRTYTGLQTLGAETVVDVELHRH
# testDetails: photo-cross-linking competition vs photoaffinity probe, in-gel fluorescence
*: point of attachment. Oxazole(5-CO) = O=C(c1cnco1)*; 2Furoyl = O=C(c1ccco1)*; Cbz = O=C(OCc1ccccc1)*
attributeMeasured: IC50 (µM)

INSERT INTO measurements (binder, attributemeasured, measured) VALUES
  ('Cbz-QTARK(2Furoyl)-NH2 (SMILES C[C@H](NC(=O)[C@@H](NC(=O)[C@H](CCC(N)=O)NC(=O)OCc1ccccc1)[C@@H](C)O)C(=O)N[C@@H](CCCNC(=N)N)C(=O)N[C@@H](CCCCNC(=O)c1ccco1)C(N)=O, also called 4.7j) [compound 26 (XL-07j)]', 'IC50', 42.4),
  ('Cbz-QTARK(Oxazole(5-CO))-NH2 (also called 4.13a) [compound 27 (XL-13a)]', 'IC50', 98.7);

// data source = patent US20210277061A1
